// data source = patent US20130261130A1

- EXPERIMENTAL TARGET: human neurotrypsin (Homo sapiens, UniProt P56730)
- Sequence (P56730 21-875): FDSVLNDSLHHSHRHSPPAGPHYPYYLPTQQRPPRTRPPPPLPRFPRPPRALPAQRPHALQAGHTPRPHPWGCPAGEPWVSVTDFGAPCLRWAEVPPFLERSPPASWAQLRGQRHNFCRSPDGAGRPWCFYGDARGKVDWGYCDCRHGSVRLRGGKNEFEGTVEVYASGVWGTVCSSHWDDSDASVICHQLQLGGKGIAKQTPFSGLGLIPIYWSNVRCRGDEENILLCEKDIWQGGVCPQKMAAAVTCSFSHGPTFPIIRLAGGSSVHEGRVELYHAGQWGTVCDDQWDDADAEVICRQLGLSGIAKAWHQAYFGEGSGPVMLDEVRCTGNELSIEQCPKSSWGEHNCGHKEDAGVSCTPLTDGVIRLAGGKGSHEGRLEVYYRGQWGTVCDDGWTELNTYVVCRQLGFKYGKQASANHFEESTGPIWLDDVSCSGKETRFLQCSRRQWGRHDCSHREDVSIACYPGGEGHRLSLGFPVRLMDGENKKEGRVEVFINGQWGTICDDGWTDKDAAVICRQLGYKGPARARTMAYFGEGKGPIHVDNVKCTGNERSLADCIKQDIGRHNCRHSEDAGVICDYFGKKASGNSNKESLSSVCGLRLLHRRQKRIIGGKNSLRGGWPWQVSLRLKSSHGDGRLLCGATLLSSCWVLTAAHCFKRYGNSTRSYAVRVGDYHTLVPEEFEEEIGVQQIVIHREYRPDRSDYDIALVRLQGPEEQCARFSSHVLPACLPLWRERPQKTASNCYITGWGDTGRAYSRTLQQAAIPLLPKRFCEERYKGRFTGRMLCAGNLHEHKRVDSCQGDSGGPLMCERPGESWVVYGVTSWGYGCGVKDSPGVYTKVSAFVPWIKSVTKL
- ASSAY NAME: Determination of IC50 for human neurotrypsin
- Format: biochemical
- CONDITION SET: human neurotrypsin; method of WO 2006/1103261; read-out: Neurotrypsin IC50
I'd appreciate it if you could supply log10(IC50) values for the items below.
Hello, just confirming the data are log10 of IC50 with units of µM.

The following compounds have reported results that may help.
>>> print(df.to_string())
                                   compound  outcome_measure  reading
0  O=C(O)c1ccc(C(=O)N2CCC(Oc3ccccc3)C2)cc1NC(=O)c1sc2ccccc2c1Cl (stereo not shown)      log10(IC50)     0.95
1  O=C(Nc1ccc(Cl)cc1)c1ccc(C(=O)O)c(NC(=O)c2sc3cc(Cl)ccc3c2Cl)c1      log10(IC50)     0.92
2  O=C(Nc1ccc(C(=O)O)c(NC(=O)c2sc3ccccc3c2Cl)c1)c1ccc(Cl)cc1      log10(IC50)     0.88
3  O=C(Nc1ncc(Cl)s1)c1ccc(C(=O)O)c(NC(=O)c2sc3ccccc3c2Cl)c1      log10(IC50)     0.95
4  CC(C)CCN(C)C(=O)c1ccc(NC(=O)c2ccc(-c3nc4cc(Cl)c(Cl)cc4[nH]3)cc2)c(C(=O)O)c1      log10(IC50)     0.59

Each compound below has a recorded value; state its log10(IC50).
1. O=C(O)c1ccc(NC(=O)c2ccc(Cl)s2)c(C(=O)Nc2ccc(Cl)cc2)c1
2. COc1ccc(-c2ccc(C(=O)O)c(NC(=O)c3ccc(-c4nc5cc(Cl)c(Cl)cc5[nH]4)cc3)c2)cc1
3. Cn1c(-c2ccc(C(=O)Nc3ccc(C(=O)Nc4ccc(Cl)cc4)cc3C(=O)O)cc2)nc2cc(Cl)c(Cl)cc21
4. O=C(O)COc1cc(C(=O)O)c(NC(=O)c2sc3ccccc3c2Cl)cc1C(=O)Nc1ccc(Cl)cc1
5. O=C(NCc1ccc(-c2ccc(Cl)cc2)s1)c1ccc(C(=O)O)c(NC(=O)c2sc3ccccc3c2Cl)c1
6. O=C(O)c1cc(C(=O)N2CCC(c3ccc(F)cc3)CC2)ccc1NC(=O)c1sc2ccccc2c1Cl
7. O=C(O)c1ccc(C(=O)N2CCC(O)(c3ccc(Cl)c(C(F)(F)F)c3)CC2)cc1NC(=O)c1sc2ccccc2c1Cl
8. O=C(NCc1c(F)cccc1F)c1ccc(NC(=O)c2cc3ccc(Cl)cc3s2)c(C(=O)O)c1

Result:
1: 1.61; 2: 0.57; 3: -0.05; 4: 0.40; 5: 1.00; 6: 0.43; 7: 0.43; 8: 0.95

For each entry beneath this line, provide reported log10(IC50).
1. O=C(Nc1ccc(Cl)cc1)c1ccc(C(=O)O)c(NC(=O)c2ccc(-c3nc4cc(Cl)c(Cl)cc4[nH]3)cc2)c1
2. O=C(Nc1nc2ccc(Cl)cc2s1)c1ccc(C(=O)O)c(NC(=O)c2sc3ccccc3c2Cl)c1
3. CN(CC1CCCCC1)C(=O)c1ccc(NC(=O)c2ccc(-c3nc4cc(Cl)c(Cl)cc4[nH]3)cc2)c(C(=O)O)c1
4. O=C(O)COc1cc(C(=O)O)c(NC(=O)c2ccc(-c3nc4cc(Cl)c(Cl)cc4n3CC(=O)O)cc2)cc1C(=O)Nc1ccc(Cl)cc1
5. O=C(NC1CCCc2ccccc21)c1ccc(NC(=O)c2ccc(-c3ccc(Cl)cc3)s2)c(C(=O)O)c1 (stereo not shown)
6. O=C(N[C@@H]1C[C@H]2CC[C@@H]1C2)c1ccc(C(=O)O)c(NC(=O)c2sc3ccccc3c2Cl)c1
7. O=C(Nc1ncc(Cl)s1)c1ccc(C(=O)O)c(NC(=O)c2ccc(-c3ccc(F)cc3)s2)c1

Result:
[-0.10, 0.63, 0.82, 0.64, 0.70, 1.15, 0.70]

Ask: log10(IC50) for O=C(O)c1cc(C(=O)N2CCC(c3ccc(Cl)cc3)C2)ccc1NC(=O)c1sc2ccccc2c1Cl (stereo not shown) ?
Result: 0.59
